Where do the numbers come from? From patent US20210070872A1.

# Study System: T1, biotinylated GITR (human, UniProt Q9Y5U5 26-161, limits assumed, biotinylated (sites not given))
# T1 construct: also called GITR-bio; Biotin-GITR
# T1 sequence: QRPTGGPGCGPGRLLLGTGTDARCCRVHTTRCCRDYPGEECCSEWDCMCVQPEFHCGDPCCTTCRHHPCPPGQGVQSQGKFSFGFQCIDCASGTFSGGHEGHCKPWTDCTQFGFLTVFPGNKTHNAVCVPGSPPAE
# Test Protocol: BLI (Octet), biotin-GITR on streptavidin tips, antibody supernatant
# Method: Several hundred germlined antibodies were selected based on binding kinetics as determined by Octet measurements (Octet RED 96 system; ForteBio™ Inc., Menlo Park, Calif.). […] Dissociation of the antibody-antigen complex was measured in wells containing the Octet buffer alone for 5 minutes. […] Affinity, Kₒₙ and Koff were determined with Octet evaluation software v6.3 using a 1:1 binding model with local full fitting.
kon values, listed per item
Only the number, expressed in M⁻¹ s⁻¹, is required.

Looking up germline variant antibody 102 (H1917H02 / K1917H02) (antibody, V domains shown, IGHG1/IGKC expression vectors; measured from CHO culture supernatant; also called Antibody ID 102) VH: QVQLVQSGTEVKKPGASVKVSCKASGYTFTGYAMYWVRQAPGQGLEWIGVIRTYSGGVSYNQKFRDRVTMTVDTSISTAYMELSRLRSDDTAVYYCAKSGTVRGFAYWGQGTLVTVSS VL: DIVMTQSPDSLAVSLGERATINCKSSQSLLNSSNQKNYLSWYQQKPGQPPKLLIYWASTRESGVPDRFTGSGSGTDFTLTISSVQAEDVAVYYCQNDYSYPYTFGQGTKLEIK , I found its kon recorded as 321000

Looking up germline variant antibody 52 (H1916F05 / K1916F05) (antibody, V domains shown, IGHG1/IGKC expression vectors; measured from CHO culture supernatant; also called Antibody ID 52) VH: QVQLVQSGTEVKKPGASVKVSCKGSGYTFTDYAMYWVRQAPGQGLEWMGLIRTYSGGVSYNQKFRERVTMTVDKSISTAYMELSRLRSDDTAVYYCAKSGTVRGFAYWGQGTLVTVSS VL: DIVMTQSPDSLAVSLGERATINCKSSQSLLNSGNQKNYLTWYQQKPGQPPKLLIYWASTRESGVPDRFSGSGSGTDFTLTISSLQAEDVAVYHCQNDYSFPYTFGQGTKLEIK , I found its kon recorded as 397000

Looking up germline variant antibody 61 (H1917A02 / K1917A02) (antibody, V domains shown, IGHG1/IGKC expression vectors; measured from CHO culture supernatant; also called Antibody ID 61) VH: QVQLVQSGTEVKKPGASVKVSCKASGYTFTEYAMHWVRQAPGQGLEWMGLIRTYSGGVSYNQKFQERVTMTVDKSISTAYMELSRLRSDDTAVYYCAKSGTVRGFAYWGQGTLVTVSS VL: DIVMTQSPDSLAVSLGERATINCKSSQSLLNSGNQKNYLSWYQQKPGQPPKLLIYWASTRESGVPDRFSGSGSGTDFTLTISSVQAEDVAVYYCQNDYSFPYTFGQGTKLEIK , I found its kon recorded as 772000

Looking up germline variant antibody 38 (H1916D08 / K1916D08) (antibody, V domains shown, IGHG1/IGKC expression vectors; measured from CHO culture supernatant; also called Antibody ID 38) VH: QVQLVQSGTEVKKPGASVKVSCKGSGYTFTGYAMYWVRQAPGQGLEWIGVIKTYSGGVTYNQKFRGRVTMTVDKSISTAYMELSRLRSDDTAVYYCAKSGTVRGFAYWGQGTLVTVSS VL: DIVMTQSPDSLAVSLGERATINCKSSQSLLNSGNQKNYLTWYQQKPGQPPKLLIYWASTRESGVPDRFSGSGSGTDFTLTISSLQAEDVAVYYCQNDYSYPYTFGQGTKLEIK , I found its kon recorded as 8.57e+06

Looking up germline variant antibody 18 (H1916B09 / K1916B09) (antibody, V domains shown, IGHG1/IGKC expression vectors; measured from CHO culture supernatant; also called Antibody ID 18) VH: QVQLVQSGTEVKKPGASVKVSCKASGYTFTGYAMYWVRQAPGQGMEWIGLIRTFSGEVTYNQKFRGRVTMTVDTSISTAYMELSRLRSDDTAVYYCAKSGTVRGFAYWGQGTLVTVSS VL: DIVMTQSPDSLAVSLGERATINCKSSQSLLNSSNQKNYLTWYHQKPGQPPKMLIYWASTRESGVPDRFTGSGSGTDFTLTISSVQAEDVAVYYCQNDYSYPYTFGQGTKLEIK , I found its kon recorded as 219000

Looking up germline variant antibody 15 (H1916B05 / K1916B05) (antibody, V domains shown, IGHG1/IGKC expression vectors; measured from CHO culture supernatant; also called Antibody ID 15) VH: QVQLVQSGAEVKKPGASVKVSCKGSGYTFTDYAMYWVRQAPGQGLEWIGVIRTFSGDVSYNQKFRERATMTVDKSISTAYMELSRLRSDDTAVYYCAKSGTVRGFAYWGQGTLVTVSS VL: DIVMTQSPDSLAVSLGERATINCKSSQSLLNSGNQKNYLSWYQQKPGQPPKLLIYWASTRESGVPDRFTGSGSGTDFTLTISSLQAEDVAVYHCQNDYSYPYTFGQGTKLEIK , I found its kon recorded as 278000

Looking up germline variant antibody 9 (H1916A10 / K1916A10) (antibody, V domains shown, IGHG1/IGKC expression vectors; measured from CHO culture supernatant; also called Antibody ID 9) VH: QVQLVQSGAEVKKPGASVKVSCKASGYTFTGYAMYWVRQAPGQGLEWMGLIRTYSGEVSYNQKFRGRATMTVDKSISTAYMELSRLRSDDTAVYYCAKSGTVRGFAYWGQGTLVTVSS VL: DIVMTQSPDSLAVSLGERATINCKSSQSLLNSGNQKNYLTWYQQKPGQPPKMLIYWASTRESGVPDRFSGSGSGTDFTLTISSLQAEDVAVYHCQNDYSFPYTFGQGTKLEIK , I found its kon recorded as 293000

Looking up germline variant antibody 31 (H1916D01 / K1916D01) (antibody, V domains shown, IGHG1/IGKC expression vectors; measured from CHO culture supernatant; also called Antibody ID 31) VH: QVQLVQSGTEVKKPGASVKVSCKGSGYTFTEYAMYWVRQAPGQGLEWMGLIRTFSGGLTYNQKFKDRVTMTVDKSISTAYMELSRLRSDDTAVYYCAKSGTVRGFAYWGQGIPVTVSS VL: DIVMTQSPDSLAVSLGERATINCKSSQSLLNSSNQKNYLTWYQQKPGQPPKLLIYWASTRESGVPDRFTGSGSGTDFTLTISSLQAEDVAVYHCQNDYSYPYTFGQGTKLEIK , I found its kon recorded as 505000

Further cases:
Looking up germline variant antibody 58 (H1916G04 / K1916G04) (antibody, V domains shown, IGHG1/IGKC expression vectors; measured from CHO culture supernatant; also called Antibody ID 58) VH: QVQLVQSGAEVKKPGASVKVSCKGSGYTFTDYAMYWVRQAPGQGLEWMGVIRTYSGGVTYNQKFKGRATMTVDKSISTAYMELSRLRSDDTAVYYCAKSGTVRGFAYWGQGTLVTVSS VL: DIVMTQSPDSLAVSLGERATINCKSSQSLLNSGNQKNYLSWYHQKPGQPPKLLIYWASTRESGVPDRFSGSGSGTDFTLTISSVQAEDVAVYHCQNDYSYPYTFGQGTKLEIK , I found its kon recorded as 263000

Looking up germline variant antibody 94 (H1917G01 / K1917G01) (antibody, V domains shown, IGHG1/IGKC expression vectors; measured from CHO culture supernatant; also called Antibody ID 94) VH: QVQLVQSGTEVKKPGASVKVSCKGSGYTFTGYAMYWVRQAPGQGLEWIGVIRTFSGGVTYNQKFRDRVTMTVDKSISTAYMELSRLRSDDTAVYYCAKSGTVRGFAYWGQGTFVTVSS VL: DIVMTQSPDSLAVSLGERATINCKSSQSLLNSGNQKNYLTWYQQKPGQPPKLLIYWASTRESGVPDRFTGSGSGTDFTLTISSVQAEDVAVYHCQNDYSYPYTFGQGTKLEIK , I found its kon recorded as 372000

Looking up germline variant antibody 86 (H1917E03 / K1917E03) (antibody, V domains shown, IGHG1/IGKC expression vectors; measured from CHO culture supernatant; also called Antibody ID 86) VH: QVQLVQSGAEVKKPGASVKVSCKGSGYTFTEYAMYWVRQAPGQGMEWMGVIRTYSGGVTYNQKFRDRATMTVDTSISTAYMELSRLRSDDTAVYYCAKSGTVRGFAYWGQGTLVTVSS VL: DIVMTQSPDSLAVSLGERATINCKSSQSLLNSGNQKNYLTWYHQKPGQPPKLLIYWASTRESGVPDRFSGSGSGTDFTLTISSVQAEDVAVYYCQNDYSYPYTFGQGTKLEIK , I found its kon recorded as 577000
